Listing: Kd of selected molecules
subject-of-test: HIV-1 NefNL4-3 (Human immunodeficiency virus type 1 group M subtype B, UniProt P03406, A33V/T15A/T51N/V11I)
test-details: Surface plasmon resonance binding to recombinant full-length Nef (NL4-3)
condition: KD, M, Table 4; SPR fit 2-step induced fit, KD = koff/kon × koff2/(koff2 + kon2)
measured-endpoint: Kd (µM)

INSERT INTO assay_data (structure_as_smiles, unit_label, readout_number) VALUES
  ('CC[C@H](C)[C@H](O)C(=O)N1CCC(c2nn(-c3nc4ccccc4[nH]3)c(O)c2CCc2ccc(F)cc2)CC1', 'µM', 4.21),
  ('Oc1c(CCc2ccc(F)cc2)c(-c2ccc(C(F)(F)F)cc2)nn1-c1cc(C(F)(F)F)n[nH]1', 'µM', 26.4),
  ('Oc1c(CCc2ccc(F)cc2)c(CNCc2cccnc2)nn1-c1nc2ccccc2[nH]1', 'µM', 12.6),
  ('O=C(c1nn(-c2nc3ccccc3[nH]2)c(O)c1CCc1ccc(F)cc1)N1CCCCC1', 'µM', 2.67);

----------
Test system: TZM-bl cell line
Assay type: cell-based
condition: human, 1 μM
Known Percent Viability @ 1 μM (TZM-bl cells) of a selection of compounds
measured-endpoint: Percent Viability @ 1 μM (TZM-bl cells) (%)

INSERT INTO results (compound, measured_endpoint, readout_number) VALUES
  ('CC(C)(C)OC(=O)N1CCC(c2nn(-c3nc4cc(F)c(F)cc4[nH]3)c(O)c2CCc2ccc(F)cc2)CC1 [Compound I-219]', 'Percent Viability @ 1 μM (TZM-bl cells)', 79.2),
  ('Oc1c(CCc2ccc(F)cc2)c(C2CCC2)nn1-c1nc2ccccc2[nH]1 [Compound I-129]', 'Percent Viability @ 1 μM (TZM-bl cells)', 99.3),
  ('O=S(=O)(c1cccnc1)N1CCCC(c2nn(-c3nc4ccccc4[nH]3)c(O)c2CCc2ccc(F)cc2)C1 (stereo not shown) [Compound I-758]', 'Percent Viability @ 1 μM (TZM-bl cells)', 99.8),
  ('CS(=O)(=O)c1cccc(-c2nn(-c3cc(C(F)(F)F)n[nH]3)c(O)c2CCC2CCOCC2)c1 [Compound I-608]', 'Percent Viability @ 1 μM (TZM-bl cells)', 101.2),
  ('Oc1c(CCc2ccc(F)cc2)c(C2CC2)nn1-c1nc2cccnc2[nH]1 [Compound I-308]', 'Percent Viability @ 1 μM (TZM-bl cells)', 100.1),
  ('O=C(c1cnccn1)N1CCCC1c1nn(-c2nc3ccccc3[nH]2)c(O)c1CCc1ccc(F)cc1 (stereo not shown) [Compound I-759]', 'Percent Viability @ 1 μM (TZM-bl cells)', 98.2),
  ('Oc1c(CCc2ccc(F)cc2)c(CCCc2ccc(F)cc2)nn1-c1nc2ccccc2[nH]1 [Compound I-120]', 'Percent Viability @ 1 μM (TZM-bl cells)', 89.1);

----------
subject-of-test: HIV-1 NefNL4-3 (Human immunodeficiency virus type 1 group M subtype B, UniProt P03406, A33V/T15A/T51N/V11I)
test-details: Surface plasmon resonance binding to recombinant full-length Nef (NL4-3)
condition: Table 4; 1:1 Langmuir fit; T = 1/koff
measured-endpoint: T, minutes (residence time) (E + 01 minutes)

INSERT INTO assay_data (compound, readout_number) VALUES
  ('Oc1c(CCc2ccc(F)cc2)c(CC2CCN(CC(F)(F)F)CC2)nn1-c1nc2ccccc2[nH]1 [Compound I-1004]', 2.82),
  ('O=S(=O)(c1cccnc1)N1CCCC(c2nn(-c3nc4ccccc4[nH]3)c(O)c2CCc2ccc(F)cc2)C1 (stereo not shown) [Compound I-758]', 9.21);

----------
subject-of-test: HIV-1 NefNL4-3 (Human immunodeficiency virus type 1 group M subtype B, UniProt P03406, A33V/T15A/T51N/V11I)
test-details: Surface plasmon resonance binding to recombinant full-length Nef (NL4-3)
condition: KD, M, Table 4; SPR fit 1:1 Langmuir, KD = koff/kon
measured-endpoint: Kd (µM)

INSERT INTO results (compound, readout_number) VALUES
  ('CS(=O)(=O)N1CCC(Cc2c(-c3ccc(C(F)(F)F)cc3)nn(-c3nc4ccccc4[nH]3)c2O)CC1', 0.597),
  ('Oc1c(CC2CCOCC2)c(-c2ccc(F)cc2)nn1-c1nc2cccnc2[nH]1', 0.48),
  ('CC(=O)N1CCCC(Cc2c(C3CC3)nn(-c3nc4ccccc4[nH]3)c2O)C1 (stereo not drawn)', 4.07),
  ('CC(=O)N1CCC(CCc2c(-c3ccc(C(F)(F)F)cn3)nn(-c3nc4cc(Br)ccc4[nH]3)c2O)CC1', 0.0263),
  ('CC(C)(C)OC(=O)N1CCC(Cc2nn(-c3nc4ccccc4[nH]3)c(O)c2CCc2ccc(F)cc2)CC1', 0.00105),
  ('Oc1c(CCc2ccc(F)cc2)c(-c2ccc(C(F)(F)F)cn2)nn1-c1nc2cccnc2[nH]1', 3.61),
  ('CC(=O)N1CCC(CCc2c(-c3ccc(C(F)(F)F)cn3)nn(-c3nc4ccccc4[nH]3)c2O)CC1', 1.11),
  ('Oc1c(CC2CCCOC2)c(-c2ccc(F)cc2)nn1-c1nc2ccccc2[nH]1 (stereo not drawn)', 0.605),
  ('OCCc1c(-c2ccc(C(F)(F)F)cc2)nn(-c2nc3ccccc3[nH]2)c1O', 0.0688),
  ('O=C(OCc1ccccc1)N1CCC(c2nn(-c3nc4ccncc4[nH]3)c(O)c2CCc2ccc(F)cc2)CC1', 0.0502),
  ('Cc1ccn(CCc2c(-c3ccc(C(F)(F)F)cc3)nn(-c3nc4cccnc4[nH]3)c2O)n1', 0.396),
  ('Cn1c(-n2nc(-c3ccc(S(C)(=O)=O)cc3)c(CCc3ccc(F)cc3)c2O)nc2ccccc21', 2.4),
  ('Cn1cccc(CCc2c(-c3ccc(C(F)(F)F)cc3)nn(-c3nc4ccccc4[nH]3)c2O)c1=O', 0.243),
  ('O=C(OCc1ccccc1)N1CCC(c2nn(-c3nc4cccc(Cl)c4[nH]3)c(O)c2CCc2ccc(F)cc2)CC1', 0.00603),
  ('CC(C)(C)c1nn(-c2nc3ccccc3[nH]2)c(O)c1CC1CCOCC1', 7.19);

----------
The reader will find reported pKd values listed item by item below.
subject-of-test: HIV-1 NefNL4-3 (Human immunodeficiency virus type 1 group M subtype B, UniProt P03406, A33V/T15A/T51N/V11I)
test-details: Surface plasmon resonance binding to recombinant full-length Nef (NL4-3)
pKd: −log10 of the molar value.
measured-endpoint: pKd

INSERT INTO measurements (compound, measured_endpoint, readout_number) VALUES
  ('Oc1c(CCc2ccc(F)cc2)c(CCCc2ccc(F)cc2)nn1-c1nc2cccnc2[nH]1 [Compound I-307]', 'pKd', 6.05),
  ('CC(C)(C)OC(=O)N1CCC(c2nn(-c3nc4ccncc4[nH]3)c(O)c2CCc2ccc(F)cc2)CC1 [Compound I-221]', 'pKd', 4.89),
  ('Oc1c(CCc2ccc(F)cc2)c(CC2CCNCC2)nn1-c1nc2ccccc2[nH]1 [Compound I-553]', 'pKd', 5.91),
  ('OCCc1c(-c2ccc(C(F)(F)F)cc2)nn(-c2nc3ccccc3[nH]2)c1O [Compound I-153]', 'pKd', 7.16),
  ('CN1CCN(CC(=O)N2CCC(Cc3nn(-c4nc5ccccc5[nH]4)c(O)c3CCc3ccc(F)cc3)CC2)CC1 [Compound I-768]', 'pKd', 5.42),
  ('CC(=O)N1CCCC(c2nn(-c3nc4ccccc4[nH]3)c(O)c2CCc2ccc(F)cc2)C1 (stereo not shown) [Compound I-754]', 'pKd', 6.32),
  ('O=C(C1CCC(O)CC1)N1CCC(c2nn(-c3nc4ccccc4[nH]3)c(O)c2CCc2ccc(F)cc2)CC1 (stereo not shown) [Compound I-735]', 'pKd', 7.33);

----------
Kd values by entry
subject-of-test: HIV-1 NefNL4-3 (Human immunodeficiency virus type 1 group M subtype B, UniProt P03406, A33V/T15A/T51N/V11I)
test-details: Surface plasmon resonance binding to recombinant full-length Nef (NL4-3)
condition: KD, M, Table 4; SPR fit 2-step induced fit, KD = koff/kon × koff2/(koff2 + kon2)
measured-endpoint: Kd

INSERT INTO results (compound, measured_endpoint, result) VALUES
  ('Oc1c(CCc2ccc(F)cc2)c(C2CCNCC2)nn1-c1nc2ccc(Cl)cc2[nH]1', 'Kd', '0.617 nM'),
  ('O=C(c1ccoc1)N1CCC(c2nn(-c3nc4ccccc4[nH]3)c(O)c2CCc2ccc(F)cc2)CC1', 'Kd', '1.7 nM'),
  ('Oc1c(CCc2ccc(F)cc2)c(-c2ccc(C(F)(F)F)cc2)nn1-c1nc2cccnc2[nH]1', 'Kd', '0.06 nM'),
  ('CC(C)(C)OC(=O)N1CCC(CCc2c(-c3ccc(C(F)(F)F)cc3)nn(-c3nc4ccccc4[nH]3)c2O)CC1', 'Kd', '0.0229 nM'),
  ('CC(C)(C)OC(=O)N1CCC(CCc2c(C3CC3)nn(-c3nc4cc(Cl)ccc4[nH]3)c2O)CC1', 'Kd', '692 nM'),
  ('Oc1c(CCc2ccc(F)cc2)c(-c2ccc(C(F)(F)F)cn2)nn1-c1nc2cc(F)ccc2[nH]1', 'Kd', '2.02 nM'),
  ('Oc1c(CCC2CCNCC2)c(-c2ccc(C(F)(F)F)cc2)nn1-c1nc2ccccc2[nH]1', 'Kd', '1040 nM'),
  ('Oc1c(CCc2ccc(F)cc2)c(-c2ccc(C(F)(F)F)nc2)nn1-c1nc2ccccc2[nH]1', 'Kd', '14.7 nM'),
  ('Oc1c(CCc2ccc(F)cc2)c(-c2cccnc2)nn1-c1nc2ccccc2[nH]1', 'Kd', '474 nM'),
  ('CC(C)(O)C(=O)N1CCC(CCc2c(-c3cccc(S(C)(=O)=O)c3)nn(-c3nc4ccccc4[nH]3)c2O)CC1', 'Kd', '1200 nM'),
  ('Oc1c(CCC2CCOCC2)c(-c2ccc(C(F)(F)F)cc2)nn1-c1nc2ccccc2[nH]1', 'Kd', '2070 nM'),
  ('Oc1c(CCC2CCN(c3ncc(F)cn3)CC2)c(C2CC2)nn1-c1nc2cc(Cl)ccc2[nH]1', 'Kd', '0.0153 nM'),
  ('O=C(C1CC1)N1CCC(CCc2c(C3CC3)nn(-c3nc4cc(Cl)ccc4[nH]3)c2O)CC1', 'Kd', '3290 nM'),
  ('COc1cc(N2CCC(CCc3c(C4CC4)nn(-c4nc5cc(Cl)ccc5[nH]4)c3O)CC2)nc(OC)n1', 'Kd', '0.00367 nM'),
  ('O=C(C1CCC(O)CC1)N1CCC(c2nn(-c3nc4ccccc4[nH]3)c(O)c2CCc2ccc(F)cc2)CC1 (stereo not drawn)', 'Kd', '0.498 nM');
